For each of the molecules below, state its MIC.
- Tested on: Moraxella catarrhalis
- ASSAY_INFO: Antimicrobial activity against Moraxella catarrhalis C2431 after 18 hrs by twofold agar dilution method
- Assay type: functional
- PARTICULARS: C2431, 18 h, read-out: MIC

I would be grateful if you could provide MIC for each of the following entries.
1. C[C@H](CO)[C@H]1CC[C@H]2[C@@H]3CC[C@H]4C[C@H](NCCCNCCCCNCCCN)CC[C@]4(C)[C@H]3CC[C@]12C.Cl.Cl.Cl.Cl
2. C[C@H](CO)[C@H]1CC[C@H]2[C@@H]3CC[C@H]4C[C@@H](NCCCNCCCCN)CC[C@]4(C)[C@H]3CC[C@]12C.Cl.Cl.Cl
3. C[C@H](CO)[C@H]1CC[C@H]2[C@@H]3CC[C@@H]4C[C@H](NCCCNCCCCNCCCN)CC[C@]4(C)[C@H]3CC[C@]12C.Cl.Cl.Cl.Cl
4. C[C@H](CO)[C@H]1CC[C@H]2[C@@H]3[C@H](N)C[C@H]4C[C@@H](NCCCNCCCCN)CC[C@]4(C)[C@H]3CC[C@]12C.Cl.Cl.Cl
5. C[C@H](CO)[C@H]1CC[C@H]2[C@@H]3CC[C@H]4C[C@@H](NCCCNCCCCNCCCN)CC[C@]4(C)[C@H]3CC[C@]12C.Cl.Cl.Cl.Cl

1: < 32 µg/mL; 2: 32 µg/mL; 3: < 32 µg/mL; 4: < 32 µg/mL; 5: < 32 µg/mL
